Entry source: patent US5594006A

target: Type IV collagenase; experiment: Type IV collagenase inhibiting activity (fluorescence labeled gelatin); settings: from HT-1080 cell; 6 hours at 37° C., pH 7.5
Consider the cut-off 0.5 µM. If the recorded IC50 is strictly smaller, the label is yes (1); if not, the label is no (0).

Consider the worked cases shown below.
CC(C)C[C@@H](C(=O)N[C@H]1Cc2ccccc2NC1=O)C(CN1C(=O)c2ccccc2C1=O)C(=O)NO (single isomer, unassigned) :: yes (1)
CC(C)C[C@@H](C(=O)N[C@H]1Cc2ccccc2NC1=O)[C@H](CSc1cccs1)C(=O)NO :: yes (1)
CON1C(=O)[C@@H](NC(=O)[C@@H](CC(=O)NO)CC(C)C)Cc2ccccc21 :: no (0)
CC(C)C[C@@H](C(=O)N[C@H]1Cc2ccccc2NC1=O)[C@H](CS)C(=O)NO :: no (0)
COCOCCN1C(=O)[C@@H](NC(=O)[C@@H](CC(=O)NO)CC(C)C)Cc2ccccc21 :: no (0)

# ---- query compound ----
QUERY: Strictly below 0.5 µM: is that where IC50 of CC(C)C[C@H](CC(=O)NO)C(=O)N[C@H]1Cc2cc3c(cc2N(C)C1=O)OCO3 sits?
RESULT: no (0)
